Each entry below carries its reported melting point.

Some entries whose results are on file:
| smiles_string | measurement_type | val |
| --- | --- | --- |
| CN1C(=O)C(=NO)c2ccc(Cl)c(Cl)c21 | melting point | > 200 °C |
| O=C1Nc2ccc(Br)cc2C1=NO | melting point | 250 to 251 °C |
| Cc1ccc2c(c1C)NC(=O)C2=NO | melting point | 283 to 284 °C |
| O=C1Nc2c(ccc(F)c2F)C1=NO | melting point | 263 to 264 °C |
| Cc1c(Cl)ccc2c1NC(=O)C2=NO | melting point | > 300 °C |
| CN1C(=O)C(=NO)c2c1ccc(Cl)c2Cl | melting point | 140 to 142 °C |
| CN1C(=O)C(=NO)c2cc(Cl)c(Cl)cc21 | melting point | 232 to 236 °C |
| COc1c(F)ccc2c1NC(=O)C2=NO | melting point | 268 to 270 °C |
| Cc1c(F)ccc2c1NC(=O)C2=NO | melting point | 286 °C (dec.) |

Query string: Which melting point value belongs to O=C1Nc2cc(Cl)c(Cl)cc2C1=NO ?
Result string: 274 to 275 °C
